Source: patent US20220411419A1

# System: downmodulation of MHC-I molecules expressed on the surface of HIV infected SupT1 cells
# Run Description: cells
# Experimental Setup: Human immunodeficiency virus 1, SUP-T1, read-out: EC50 for inhibition of MHC-I downmodulation utilizing the R1 parameter
pEC50: −log10 of the molar value.
The compounds listed here are annotated with their pEC50.

# Cpd Smiles, Experimental System, Op, pEC50
measured = [
    ("CC1(C)Cc2cccc(OCC(=O)Nc3nc4c(F)c(F)ccc4s3)c2O1", "downmodulation of MHC-I molecules expressed on the surface of HIV infected SupT1 cells", "=", 5.20),
    ("Cc1cccc(NC(=O)COc2cccc3c2OC(C)(C)C3)n1", "downmodulation of MHC-I molecules expressed on the surface of HIV infected SupT1 cells", "=", 4.64),
    ("COc1cc(C)ccc1OCC(=O)N(C)c1nc2c(s1)CCCC2", "downmodulation of MHC-I molecules expressed on the surface of HIV infected SupT1 cells", "=", 5.74),
    ("CC1(C)Cc2cccc(OCC(=O)Nc3nc(C(=O)N4CC[C@H](CO)C4)cs3)c2O1", "downmodulation of MHC-I molecules expressed on the surface of HIV infected SupT1 cells", "<", 4.60),
    ("CC1(C)Cc2cccc(OCC(=O)Nc3ncnc4ccccc34)c2O1", "downmodulation of MHC-I molecules expressed on the surface of HIV infected SupT1 cells", "<", 4.60),
]
